Target: human liver glycogen phosphorylase a (HLGPa) (Homo sapiens, UniProt P06737)
Construct: creating a full-length cDNA fused at the 5′ end to codons for methionine-glycine-alanine-histidine; 6xHis tag (leader Met-Gly-Ala-His6-Gly-Gly) (N); made in house; host or cells: E. coli (bacterial expression plasmid pTXK1007LTev)
Sequence (P06737 2-847 limits assumed): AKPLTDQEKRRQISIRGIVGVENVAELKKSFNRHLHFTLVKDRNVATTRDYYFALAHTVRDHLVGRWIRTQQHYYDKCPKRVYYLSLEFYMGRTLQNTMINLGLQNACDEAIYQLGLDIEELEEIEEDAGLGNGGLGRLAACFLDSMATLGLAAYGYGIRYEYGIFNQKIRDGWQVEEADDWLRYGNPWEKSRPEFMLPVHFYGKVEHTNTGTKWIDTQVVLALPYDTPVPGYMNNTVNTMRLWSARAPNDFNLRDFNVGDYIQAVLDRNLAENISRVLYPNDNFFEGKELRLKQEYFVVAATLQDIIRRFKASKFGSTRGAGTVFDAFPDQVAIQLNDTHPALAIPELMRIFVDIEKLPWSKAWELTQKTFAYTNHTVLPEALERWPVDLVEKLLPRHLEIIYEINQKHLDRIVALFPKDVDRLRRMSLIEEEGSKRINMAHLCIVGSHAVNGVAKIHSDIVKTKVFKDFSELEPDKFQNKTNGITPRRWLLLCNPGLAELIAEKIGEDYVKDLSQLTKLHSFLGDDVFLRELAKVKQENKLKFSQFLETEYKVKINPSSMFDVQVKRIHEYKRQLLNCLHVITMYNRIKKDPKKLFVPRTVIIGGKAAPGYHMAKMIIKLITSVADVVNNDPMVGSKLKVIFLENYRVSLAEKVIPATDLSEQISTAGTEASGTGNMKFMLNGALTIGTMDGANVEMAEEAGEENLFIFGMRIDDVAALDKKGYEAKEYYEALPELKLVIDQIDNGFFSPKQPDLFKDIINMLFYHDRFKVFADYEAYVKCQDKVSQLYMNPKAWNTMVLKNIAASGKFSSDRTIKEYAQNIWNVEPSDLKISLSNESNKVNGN
Assay: Human liver glycogen phosphorylase a enzymatic activity assay (coupled, fluorescent resorufin readout, with and without 10 mM glucose)
Assay type: biochemical
Details: human liver glycogen phosphorylase a enzymatic activity assay
Where a name gives a salt, the structure may show the parent alone.
OUTCOME MEASURE: IC50 (nM)
State just the number; it will be interpreted in nM.

The cases that follow already have their IC50 on record.
>>> df
                                   compound                          target_or_system  outcome_measure  experimental_value
0  CC[C@H](C)[C@H](NC(=O)c1c(NC(=O)Nc2c(C)cccc2C)sc2c1CCCC2)C(=O)O  human liver glycogen phosphorylase a (HLGPa) (Homo sapiens, UniProt P06737)             IC50               13900
1  Cc1cc(C)c(NC(=O)Nc2cc(-c3ccc(F)c(F)c3)ccc2C(=O)N[C@H](C(=O)O)[C@@H](C)OC2CCC2)c(C)c1  human liver glycogen phosphorylase a (HLGPa) (Homo sapiens, UniProt P06737)             IC50                   7
2  CC[C@H](C)[C@H](NC(=O)c1cc(F)c(F)cc1NC(=O)Nc1c(C)cccc1Cl)C(=O)O  human liver glycogen phosphorylase a (HLGPa) (Homo sapiens, UniProt P06737)             IC50                5970

Find IC50 (human liver glycogen phosphorylase a (HLGPa) (Homo sapiens, UniProt P06737)) for the entry `Cc1cccc(C)c1NC(=O)Nc1cc2ccccc2cc1C(=O)N1CCC[C@H]1C(=O)O`
2240

Give recorded IC50 with human liver glycogen phosphorylase a (HLGPa) (Homo sapiens, UniProt P06737) for the following compound: `Cc1cccc(C)c1NC(=O)Nc1cc2ccccc2cc1C(=O)N[C@@H](C)C(=O)O`
1480

What is its IC50 for human liver glycogen phosphorylase a (HLGPa) (Homo sapiens, UniProt P06737)? Entry: `CCCc1cc(C)c(NC(=O)Nc2cc(F)ccc2C(=O)N[C@@](C)(C(=O)O)C2CCCCC2)c(C)c1`
4

Record `COc1ccc(-c2cc(NC(=O)Nc3c(Cl)cccc3Cl)c(C(=O)O)s2)cc1` : what is its IC50 with human liver glycogen phosphorylase a (HLGPa) (Homo sapiens, UniProt P06737)?
1150

For human liver glycogen phosphorylase a (HLGPa) (Homo sapiens, UniProt P06737), provide IC50 of `Cc1cccc(C)c1NC(=O)Nc1cc(Cl)c(Cl)cc1C(=O)N[C@H](C(=O)O)C1CCCCC1` please.
94

Request: IC50, test system human liver glycogen phosphorylase a (HLGPa) (Homo sapiens, UniProt P06737), entry `Cc1cc(C)c(NC(=O)Nc2cc(-c3cc(F)c(F)c(F)c3)sc2C(=O)NC2(C(=O)O)CCCCC2)c(C)c1`
206

Enter reported IC50 observed with human liver glycogen phosphorylase a (HLGPa) (Homo sapiens, UniProt P06737) for `COc1ccc(-c2cc(NC(=O)Nc3c(Cl)cc(OC(F)(F)F)cc3Cl)c(C(=O)N[C@H](C(=O)O)C3CCCCC3)s2)cc1`
80

Reported IC50 for human liver glycogen phosphorylase a (HLGPa) (Homo sapiens, UniProt P06737), given `COc1ccc(-c2cc(NC(=O)Nc3c(C)cc(C)cc3C)c(C(=O)N[C@H](C(=O)O)C(C)C)s2)cc1` ?
100

Reported IC50 for human liver glycogen phosphorylase a (HLGPa) (Homo sapiens, UniProt P06737), given COc1cc(NC(=O)Nc2c(C)cccc2C)c(C(=O)N[C@@H](Cc2c[nH]c3ccccc23)C(=O)O)cc1OC [Example 82, trifluoroacetate] ?
9410

Param readout= IC50; system= human liver glycogen phosphorylase a (HLGPa) (Homo sapiens, UniProt P06737); entry= Cc1cccc(C(C)C)c1NC(=O)Nc1cc2ccccc2cc1C(=O)NC(C(=O)O)c1ccccc1 (stereo not drawn) ; returns value.
1040

IC50 of `O=C(Nc1cc(-c2ccc(OC(F)(F)F)cc2)sc1C(=O)N[C@H](C(=O)O)C1CCCCC1)Nc1c(Cl)cccc1Cl` on human liver glycogen phosphorylase a (HLGPa) (Homo sapiens, UniProt P06737)?
1630

For human liver glycogen phosphorylase a (HLGPa) (Homo sapiens, UniProt P06737), provide IC50 of `Cc1cc(C)c(CC(=O)Nc2cc3ccccc3cc2C(=O)N[C@H](C(=O)O)C2CCCCC2)c(C)c1` please.
64
